Target: extracellular domain of IGF-IR (human) (UniProt P08069)
Test: SPR (BIAcore 3000), Protocol 1: antibody captured on protein A, IGF-IR ECD injected
pKd: −log10 of the molar value.
recorded_endpoint: pKd

[[record]]
binder = "anti-IGF-IR antibody 2.12.1 (antibody, V domains shown) VH: QAQLVESGGGLVKPGGSLRLSCAASGFTFSDYYMSWIRQAPGKGLEWVSYISSSGSTRDYADSVKGRFTISRDNAKNSLYLQMNSLRAEDTAVYYCVRDGVETTFYYYYYGMDVWGQGTTVTVSS VL: DIQMTQSPSSLSASVGDRVTFTCRASQDIRRDLGWYQQKPGKAPKRLIYAASRLQSGVPSRFSGSGSGTEFTLTISSLQPEDFATYYCLQHNNYPRTFGQGTEVEIIR"
recorded_endpoint = "pKd"
observed_measurement = 8.13

